- System: A549/ATCC NSCLC
- ASSAY EXPLANATION: NCI-60 one-dose screen, 48 h (100 = growth as untreated, 0 = no growth, -100 = all killed)
- EXPERIMENTAL CONDITIONS: 10 µM unless noted
The panel holds about 83,000 compounds, 20% with a hit somewhere; the sample as a whole holds those more often. The source made the active and inactive calls. Rule for the calls: active = growth percent below 10; inactive = the rest.
Quick reference for growth among some molecules
PARAMETER MEASURED: growth

{"columns": ["MOLECULE", "PARAMETER MEASURED", "OBSERVED"],
 "data": [
  ["Cc1ccc(-c2cc3nc(C(Cl)Cl)nc(-c4ccc(S(=O)(=O)N(C)C)cc4)n3n2)cc1", "growth", "88.4% (inactive)"],
  ["CC(Nc1ncnc2ccc(-c3cnc4cnccn34)cc12)c1ccccc1 (centres undefined)", "growth", "37.6% (inactive)"],
  ["O=C(CCCCCCN1CC(=O)N2[C@@H](C3CC3)c3[nH]c4ccccc4c3C[C@H]2C1=O)NO", "growth", "99% (inactive)"],
  ["CCN(CC)CCOc1ccc(C(=C(c2ccccc2)C2CCCC2)c2ccc(OCCN(CC)CC)cc2)cc1", "growth", "37.4% (inactive)"],
  ["NS(=O)(=O)c1nnc(/N=C/c2c(O)[nH]c3ccccc23)s1", "growth", "108% (inactive)"],
  ["Cc1ccc2c(n1)C(=O)C(Cl)=C(Nc1ccc(C#N)cc1)C2=O", "growth", "106% (inactive)"],
  ["C#CCOc1ccc(-c2csc(NC(=O)C=C)n2)cc1NS(=O)(=O)c1cccc2c(N(C)C)cccc12", "growth", "65.4% (inactive)"],
  ["Clc1cccc(/C=N/Nc2nc(N/N=C/c3cccc(Cl)c3)nc(N3CCCCC3)n2)c1", "growth", "86.3% (inactive)"],
  ["Cn1cc(-c2nn3cc(-c4ccncc4)nc3s2)c2cc(Br)ccc21", "growth", "66.4% (inactive)"]
]}

---

- System: EKVX NSCLC
- ASSAY EXPLANATION: NCI-60 one-dose screen, 48 h (100 = growth as untreated, 0 = no growth, -100 = all killed)
- EXPERIMENTAL CONDITIONS: 10 µM unless noted
- Procedure: Growth inhibition of the EKVX human Non-Small Cell Lung tumor cell line is measured as a screen for anti-cancer activity. Cells are grown in 96 well plates and exposed to the test compound for 48 hours. Compounds are tested at a single concentration, which is 10^-5 M for most compounds. The reported endpoint is percent growth (GI% or GIPRCNT), where numbers from 0 - 100% represent growth inhibition, and numbers from -100% - 0 represent cell death. […]
This is part of a sample that, as a whole, favours compounds with a hit. Of some 83,000 tested, about 20% had one in any assay.
We begin with a simple list: items and their reported growth.
PARAMETER MEASURED: growth (%)

{"columns": ["COMPOUND", "PARAMETER MEASURED", "OBSERVED"],
 "data": [
  ["COC(=O)CCSC1=C(C)C(=O)c2ccccc2C1=O", "growth", 74.2],
  ["CCCCCc1ccc(S(=O)(=O)Nc2cc(-c3csc(N)n3)ccc2OC)cc1", "growth", 86.4],
  ["CC(C)Sc1nc(-c2ccccc2)c(C#N)c(N2CCOCC2)n1", "growth", 69.8],
  ["CC(O)c1cccc(/C(N)=N/C(N)=N/c2nc3ccccc3s2)c1 (stereo not drawn)", "growth", 91.9],
  ["Oc1[nH]c2ccc(Cl)cc2c1N=Nc1nc(N=Nc2c(O)[nH]c3ccc(Cl)cc23)nc(N2CCOCC2)n1", "growth", 85.2],
  ["CN(C)c1cccc2c(S(=O)(=O)Nc3cccc(-c4csc(NC(=O)CCCCCN5CCN(CCO)CC5)n4)c3)cccc12", "growth", 85],
  ["C[C@@H]1OCC2(CCN(c3cnc(C(=O)Nc4cc(F)cc5cccnc45)cn3)CC2)[C@@H]1N", "growth", 78.2],
  ["CN1CCN(c2ccc(Nc3nc(NCCCNS(=O)(=O)c4ccc(Cl)cc4)c4sccc4n3)cc2)CC1", "growth", 50.8],
  ["CCOC(=O)c1ccccc1NC1=C(Cl)C(=O)c2nc(C)ccc2C1=O", "growth", 95.1],
  ["Cc1cc(=O)[nH]c(O)c1C#N", "growth", 94.3],
  ["CC(=O)/C(N=Nc1ccc2oc(=O)ccc2c1)=C(\\C)O", "growth", 30.8],
  ["CN(C)c1ccc(-c2cc(-c3c[nH]c4ccccc34)nc(N)c2C#N)cc1", "growth", 61.8],
  ["O=C1C(N2CCN(c3ccccc3)CC2)=C(Cl)C(=O)c2ncccc21", "growth", 101]
]}

---

# growth per record follows
- System: HOP-62 NSCLC
- ASSAY EXPLANATION: NCI-60 one-dose screen, 48 h (100 = growth as untreated, 0 = no growth, -100 = all killed)
- EXPERIMENTAL CONDITIONS: 10 µM unless noted
Compounds without any hit were thinned out: in the full panel of roughly 83,000, 20% have a hit.
PARAMETER MEASURED: growth (%)

{"columns": ["COMPOUND", "OBSERVED"],
 "data": [
  ["Cn1cc(C2=C(c3coc4cc(Br)ccc34)C(=O)NC2=O)c2ccccc21", 71],
  ["CCCN1C=C/C(=C\\C(=O)n2ccc3ccccc32)c2ccccc21", 94.6],
  ["COc1ccc(/C=N/NC(=O)c2c(N)nn(C)c2Nc2ccccc2)cc1", 38.8],
  ["CC1=C(C)C(=O)C(Nc2cccc(C(=O)OC(C)(C)C)c2)=CC1=O", 78.4],
  ["O=S(=O)(NCCCNc1nccc(-c2[nH]c(-c3ccccc3)nc2-c2ccc(F)c(O)c2)n1)c1ccccc1", 120],
  ["CCOC(=O)c1ccc(NC2=C(Cl)C(=O)c3nc(C)ccc3C2=O)cc1", 113],
  ["C#Cc1cc(OC)c(C(=O)Nc2ccc(F)cc2C(=O)Nc2cccc(S(=O)(=O)C(F)(F)F)c2)cn1", 16.3],
  ["CCCCOc1ccc(S(=O)(=O)N2CCN(c3nc(C)cc(N4CCOCC4)n3)CC2)cc1", 59],
  ["Cc1ccsc1[C@H]1c2[nH]c3ccccc3c2C[C@H]2C(=O)N(CCCCCCC(=O)NO)CC(=O)N12", 101],
  ["N#Cc1c(-c2ccc(F)cc2)cc(-c2c[nH]c3ccccc23)nc1-c1c[nH]c2ccccc12", 101],
  ["COc1ccccc1/C=C1\\Oc2ccc(O)c(O)c2C1=O", 99.9],
  ["O=C1[C@@H]2Cc3c([nH]c4ccccc34)[C@@H](c3ccc(Cl)cc3)N2C(=O)CN1C1CCN(Cc2ccccc2)CC1", 61],
  ["COc1ccc(C2CC(c3cccc(OCCCCOc4cccc(C5=NOC(c6ccc(OC)cc6)C5)c4)c3)=NO2)cc1 (stereo not given)", 105],
  ["COc1cc2oc(-c3cccc(NC(=O)[C@@H](N)C(C)C)c3)cc(=O)c2c(OC)c1OC", 103],
  ["O=C(CSc1nc2ccccc2c(=O)n1-c1ccc(S(=O)(=O)Nc2ccc(Cl)nn2)cc1)Nc1ccc(S(=O)(=O)Nc2ccc(Cl)nn2)cc1", 104],
  ["CC[C@]12C=CCN3CC[C@@]4(c5ccc(OC)cc5N(C)[C@H]4[C@@](O)(C(=O)OC)[C@@H]1OC(=O)CCN1CCc4ccccc4C1)[C@@H]32", 87.5],
  ["C#Cc1nc(C(=O)NCCCCCCC(=O)NO)cs1", 16.9],
  ["O=C(CN1CCN(c2cc(=O)[nH]c3ccc(F)cc23)CC1)N(c1ccccc1)c1ccccc1", 102],
  ["O=C1Nc2ccc(F)cc2/C1=C\\C(=O)c1ccc(NS(=O)(=O)c2ccccc2)cc1", 103],
  ["CCCC[n+]1ccc(SCC(=O)n2ccc3ccccc32)c2ccccc21", 103],
  ["CCNC(=O)Oc1ccc(/C(=C(/C)c2ccc(OC)cc2)c2ccc(OCCN3CCCCCC3)cc2)cc1", 31.9],
  ["C#CCN(C)CCCOc1ccc(NC(=O)CCCCCCCCC(=O)NO)cc1Cl", 77.6],
  ["CN1CCN(Cc2ccc(/C=N/Nc3ccnc4cc(Cl)ccc34)cc2)CC1", 80.5],
  ["CCN(CC)c1ccc(/C=N/NC(=O)c2ccc(S(N)(=O)=O)cc2)cc1", 18.6],
  ["Oc1ccc(-c2nc3ccc(/C(=N\\N=C\\c4ccc(Cl)cc4)c4ccccc4)cc3[nH]2)cc1", 100]
]}

---

- Tested on: NCI-H226 lung
- ASSAY EXPLANATION: NCI-60 one-dose screen, 48 h (100 = growth as untreated, 0 = no growth, -100 = all killed)
- EXPERIMENTAL CONDITIONS: 10 µM unless noted
About 83,000 compounds went through this panel and 20% of them were active in at least one assay; those are over-represented in the sample as a whole.

{"columns": ["COMPOUND", "growth (%)"],
 "data": [
  ["O=C(COc1ccc(/C=C2\\C(=O)Nc3ccc(F)cc32)cc1)Nc1ccccc1", 96.6],
  ["COC(=O)c1ccc(NC2=C(Cl)C(=O)c3nc(C)ccc3C2=O)cc1", 81.3],
  ["CCCNNC(=O)c1ccc(-c2ccc(NC(=O)CCCCCCC(=O)N[C@H](C(=O)N3C[C@H](O)C[C@H]3C(=O)N[C@@H](C)c3ccc(-c4scnc4C)cc3)C(C)(C)C)cc2)cc1", 46.5],
  ["C=C(C)[C@@H]1CC[C@]2(C(=O)NC3CCCCC3)CC[C@]3(C)[C@H](CC[C@@H]4[C@@]5(C)CC[C@H](N)C(C)(C)[C@@H]5CC[C@]43C)[C@@H]12", 94.2],
  ["O=C1[C@@H]2Cc3c([nH]c4ccccc34)[C@@H](c3ccc(Cl)cc3)N2C(=O)CN1C1CCN(Cc2c(F)cccc2F)CC1", 60.6],
  ["CNC(=O)c1cc(Oc2ccc3c(c2)sc2nc(-c4ccc(N(C)C)cc4)cn23)ccn1", 36.2],
  ["CCS(=O)(=O)Nc1ccc(C(=O)CC2(O)C(=O)Nc3ccccc32)cc1 (stereo not drawn)", 91.5],
  ["Brc1ccc(-c2cc(-c3ccc4c(c3)OC=CO4)n[nH]2)s1", 95.1]
]}

Where do the numbers come from? From PubChem BioAssay (NCI).
